This collection of values is drawn from patent US8410109B2.

system: VCAM-1; test: VCAM-1 ELISA on lysates of TNF-α stimulated HUVECs; format: cell-based; conditions: Homo sapiens, HUVEC, 50 uM, approx. 16 hours
Counter-ions that a name gives are not always drawn.
MEASUREMENT_TYPE: inhibition at 50 µM

> print(dat)
                                   molecule  result
1  COc1cc(OC)c2c(=O)cc(-c3ccncc3)oc2c1 [EXAMPLE 34, hydrochloride]   < 50%
2  Cc1cc(-c2cc(=O)c3cccnc3o2)cc(C)c1O [EXAMPLE 24]   ≥ 50%
3  O=c1cc(-c2ccncc2)oc2cccc(CO)c12 [EXAMPLE 51]   < 50%
4  O=c1cc(-c2ccc3[nH]ncc3c2)oc2ncc(CN3CCOCC3)cc12 [EXAMPLE 47]   < 50%
5  Cc1cc(-c2cc(=O)c3cc(CN4CCCC4)cnc3o2)cc(C)c1O [EXAMPLE 33, dihydrochloride]   < 50%

Assay VCAM-1, sample COc1cc(OC)c2c(=O)[nH]c(-c3ccc(O)cc3)cc2c1 [EXAMPLE 19] , inhibition at 50 µM read: < 50%

# inhibition at 50 µM measured on VCAM-1 for item O=c1cc(-c2ccc(CO)cc2)oc2ncccc12 [EXAMPLE 23] = < 50%

Record COc1cccc2c(=O)[nH]c(-c3ccc(O)c(F)c3)cc12 [EXAMPLE 18] has VCAM-1 inhibition at 50 µM equal to ≥ 50%
